melting point: recorded values
outcome measure: melting point

- compound: "CCOC(=O)C1(Cc2ccccc2)CC(=O)N(c2ccnc(NC(=O)NCc3ccccn3)c2)C1 (stereo not given)"
  outcome measure: "melting point"
  test result: "158 to 160 °C"
- compound: "CC(C)CC(C)c1cc(C(C(F)(F)F)C(F)(F)F)ccc1NC(=O)c1c(C(F)(F)F)nn(C)c1Cl (stereo not given)"
  outcome measure: "melting point"
  test result: "102 to 104 °C"
- compound: "CCOC(=O)NN(C(=O)NC)S(=O)(=O)c1ccccc1"
  outcome measure: "melting point"
  test result: "138 to 142 °C"
- compound: "C=C1CC2C(CCC3(C)C2CCC3(OC(C)=O)C(=O)COC(C)=O)C2(C)CCC(=O)C=C12 (stereo not given)"
  outcome measure: "melting point"
  test result: "227 to 228 °C"
- compound: "COC(=O)CC/C(C)=C/Cc1c(NC(=O)C(F)(F)F)c2c(c(C)c1OC)COC2=O"
  outcome measure: "melting point"
  test result: "107 to 109 °C"

====

outcome measure: melting point

- compound: "CC(C)=C1C(=O)N(c2ccc(O)cc2)C(=O)/C1=C(/c1cc(C)sc1C)C(C)C"
  test result: "136 to 138 °C"
- compound: "COc1cc(O)c2c(=O)c(OC(C)C)c(-c3ccc(O)c(OC)c3)oc2c1"
  test result: "169 to 171 °C"
- compound: "CC(C#N)c1ccc(O)c([N+](=O)[O-])c1 (configuration not stated)"
  test result: "78 to 81 °C"
- compound: "COc1ccc2c(c1)CCC1=C2CCC(=O)N1"
  test result: "203 to 204 °C"
- compound: "CCCOc1cc([N+](=O)[O-])ccc1[N+](=O)[O-]"
  test result: "52 to 54 °C"
- compound: "O=C(COc1cc(-c2ccccc2F)nc2ccccc12)N1CCOCC1"
  test result: "145 °C"
- compound: "O=C1C(=O)c2ccccc2C2=C1SCC1(CCN(C(=O)C(Cl)c3ccccc3)CC1)O2 (configuration not stated)"
  test result: "125 to 126 °C"
- compound: "CCOC(=O)N1CCC2C(O)CCCC21 (configuration not stated)"
  test result: "153 to 155 °C"
- compound: "Cn1c2ccccc2c2oc(C#N)cc(=O)c21"
  test result: "190 to 192 °C"
- compound: "Nc1nc2ccccc2c2c1ncn2CCOCCCc1cccnc1"
  test result: "125 to 128 °C"
- compound: "CN(CCNc1ccc([N+](=O)[O-])cc1)S(C)(=O)=O"
  test result: "109 °C"
- compound: "CCCC(=O)C1CCC2C3CCC4CC(O)CCC4(C)C3C(=O)CC12C (configuration not stated)"
  test result: "112 to 113 °C"
- compound: "Nc1[nH]c(=O)[nH]c(=O)c1N"
  test result: "144 to 146 °C"
- compound: "CN(C)C(=O)Oc1ccc2c(NCCN3CCOCC3)noc2c1"
  test result: "150 °C"
- compound: "COc1cccc2c1C(=O)OC2(C)O (configuration not stated)"
  test result: "156 to 158 °C"
- compound: "O=C(O)c1ccc(NC(=O)c2ccc(Cl)cc2)cc1"
  test result: "> 260 °C"
- compound: "c1ccc(-c2nc3cnccc3o2)cc1"
  test result: "118 to 121 °C"
- compound: "CCN(CC)CCNC(=O)c1cc(N)cc(C)c1OC"
  test result: "56 to 57 °C"
- compound: "CCN(CC)CCNC(=O)c1cc(Cl)c(N)cc1OCC(=O)N1CCCC1"
  test result: "160 to 162 °C"
- compound: "C[C@@H](N(CC(=O)O)C(=O)c1ccc(C(F)(F)F)cc1F)[C@](O)(Cn1cncn1)c1ccc(F)cc1F (relative stereo)"
  test result: "191 to 192 °C"
- compound: "COc1ccc2c(c1)sc1ncc(C=O)n12"
  test result: "168 to 169 °C"
- compound: "COC(=O)C(C)Oc1ccc(Oc2ccc3ccccc3n2)cc1 (configuration not stated)"
  test result: "95 to 100 °C"

====

outcome measure: melting point

- compound: "Brc1ccc(N2CCC(Cc3ccccc3)CC2)nc1"
  test result: "78 °C"
- compound: "Cc1ccc(S(=O)(=O)ON=C2CC(c3ccccc3)c3ccccc32)cc1 (centres undefined)"
  test result: "123 to 127 °C"
- compound: "C=Cn1ccnc1C#N"
  test result: "81.5 °C"
- compound: "CCC(CC)n1nc(C)c2c(O)nc(C)nc21"
  test result: "202 to 203 °C"
- compound: "CCOCc1nc2c(N)nc3cc(OCc4ccccc4)ccc3c2n1CC(C)(C)O"
  test result: "215 to 216 °C"
- compound: "COC(=O)c1ccc(CCl)nc1C1=NC(C)(C(C)C)C(=O)N1 (centres undefined)"
  test result: "127 to 129 °C"
- compound: "CCN(CC)C(=O)COc1cc(N)c(Cl)cc1C(=O)OC"
  test result: "97.5 to 99.5 °C"
- compound: "Cc1nc(C(C)O)cn1Cc1ccccc1 (centres undefined)"
  test result: "162 to 168 °C"
- compound: "COc1ccc(Cn2c(Cl)nc3c(-c4ccc(Cl)o4)ncnc32)cc1"
  test result: "156 to 157 °C"
- compound: "O=C(Cc1ccc2[nH]cc(CCN3C(=O)c4ccccc4C3=O)c2c1)N1CCOCC1"
  test result: "140 to 141 °C"
- compound: "CCCC(=O)c1ccc(OC)c(Cl)c1Cl"
  test result: "42 to 44 °C"
- compound: "Cc1nnc(C(O)CCCCCCOc2ccc(OCc3ccccc3)cc2)o1 (centres undefined)"
  test result: "98 to 100 °C"
- compound: "COC(=O)c1ccccc1-c1ccc(CNc2nc(Cl)nc3ccsc23)cc1"
  test result: "177 to 182 °C"
- compound: "COc1ccc(NCCSC#N)c([N+](=O)[O-])c1"
  test result: "116 to 118 °C"
- compound: "CCOC(=O)c1c(-c2ccccc2)c2ccc(Cl)cc2c(=O)n1C"
  test result: "152 to 153 °C"
- compound: "O=C(c1ccc(-n2ccnc2)cc1)N1Cc2cccn2Cc2ccccc21"
  test result: "171 to 172 °C"
- compound: "OCC1OC(n2cnc3c2N=CNCC3O)C(O)C1O (centres undefined)"
  test result: "178 to 183 °C"
- compound: "Nc1nc(SC2CCC2)c2ncn(C3C=CC(CO)C3)c2n1 (centres undefined)"
  test result: "159 to 160 °C"
- compound: "O=C1CCNC(=O)C1C(=O)c1ccc(Cl)cc1[N+](=O)[O-] (centres undefined)"
  test result: "161 to 164 °C"
- compound: "CCOC(=O)C(Cc1ccccc1)NC(=O)COc1ccc(C2=NNC(=O)NC2)cc1Cl (centres undefined)"
  test result: "180 to 181 °C"
- compound: "CC(=O)NCCC1CCc2ccc3nc(CCCc4ccccc4)oc3c21 (centres undefined)"
  test result: "95 to 97 °C"
- compound: "CC(=O)NC1CCN(c2cccc(Br)n2)CC1"
  test result: "158 to 160 °C"
- compound: "O=C(Cn1ccnc1)c1nccs1"
  test result: "109 to 112 °C"
- compound: "CC(=O)Nc1ccc(Sc2ccc(Cl)cc2)cc1"
  test result: "140 to 141 °C"

====

melting point: recorded values

- structure as smiles: "CN1CCN=C(c2ccc([N+](=O)[O-])cc2)C1=O"
  melting point: "191 to 192 °C"
- structure as smiles: "Brc1cncc(OCc2ccccc2)c1"
  melting point: "65 to 67 °C"
- structure as smiles: "CCOC(=O)c1cn(CC(F)(F)F)c2cc3c(cc2c1=O)OCO3"
  melting point: "204 to 206 °C"
- structure as smiles: "COc1ccccc1COc1cc2c(cc1OC)C(=O)N(Cc1ccccc1OC)CC2"
  melting point: "133 to 134 °C"
- structure as smiles: "CCSc1c2ccccc2c(C=O)c2ccccc12"
  melting point: "74 to 75.5 °C"
- structure as smiles: "C[C@H](NC(=O)CCSC(=O)c1ccccc1)C(=O)O"
  melting point: "99 to 100 °C"
- structure as smiles: "Cc1nc2c(s1)-c1nc(Nc3ccc(O)cc3)ncc1CC2"
  melting point: "268 to 269 °C"
- structure as smiles: "Cc1ccc(S(=O)(=O)Cc2cccc(C(F)(F)F)c2)cc1"
  melting point: "139 to 140 °C"
- structure as smiles: "Cc1ccccc1Oc1ccc2ccc(N)nc2n1"
  melting point: "192 °C"
- structure as smiles: "COC(=O)C[C@@H](CC(=O)C=Cc1c(-c2ccc(F)cc2)c(-c2ccccc2)c(C(=O)Nc2ccccc2)n1C(C)C)O[Si](C)(C)C(C)(C)C"
  melting point: "62 to 64 °C"
- structure as smiles: "CCCCCCCCCCCCCCCCCC(=O)NN(C(=O)CCCCCCCCCCCCCCCCC)C(=O)CCCCC(=O)NN"
  melting point: "244 °C"
- structure as smiles: "CCOc1cc(CF)nc(N)n1"
  melting point: "85 to 87 °C"
- structure as smiles: "COc1ccc(OC)c(Sc2ncccc2C(=O)NCC23CC4CC(CC(C4)C2)C3)c1"
  melting point: "135 to 136 °C"
- structure as smiles: "O=c1[nH]c2ncc(-c3ccc(-c4cn[nH]c4)cc3)nc2n1CC1CCCCC1"
  melting point: "305 to 307 °C"
- structure as smiles: "c1ccn2c(=Nc3nccs3)snc2c1"
  melting point: "169 to 171 °C"
- structure as smiles: "COc1cc(Nc2c(C#N)cnc3cc(-c4cccc(CCN5CCOCC5)c4)ccc23)c(Cl)cc1Cl"
  melting point: "146 to 148 °C"
- structure as smiles: "CC(C)(C)[Si](C)(C)Oc1ccc(NC(=O)CBr)cc1"
  melting point: "112 to 113 °C"
- structure as smiles: "COc1ccnc(CCc2nc3cc(-c4ccc(S(=O)(=O)N5CCN(C)CC5)cc4)cnc3[nH]2)c1"
  melting point: "193 to 195 °C"
- structure as smiles: "CC(=O)Nc1ccc(C#CCCN2CC=C(c3ccccc3)CC2)cc1"
  melting point: "172 to 173 °C"
- structure as smiles: "CCOCc1nc2c(N)nc3c(c2n1NCCCNC(=O)N1CCOCC1)CCCC3"
  melting point: "152 to 154 °C"
- structure as smiles: "Cc1c(NC(=O)c2ccc(-c3ccc(F)cc3)cc2)ccc2cc(CN3CCOCC3)cnc12"
  melting point: "176 to 178 °C"
- structure as smiles: "CC(C)c1nc2c(N)nc(-c3ccncc3)nc2[nH]1"
  melting point: "269 to 272 °C"
- structure as smiles: "CCOC(=O)CN1CC[C@@H](O)C1=O"
  melting point: "84 to 85 °C"

Values were extracted from a melting point compilation (Tetko et al.; mined from patent text by program, amines drawn as free bases though some values may be those of a salt).
